Assay: Pharmacokinetics in Sprague–Dawley rats
Format: in vivo
Conditions: Sprague-Dawley, rat, plasma, po, 3 mg/kg
I'd appreciate it if you marked entries Met when half-life is lower than 1 h and Not met when it is not.

Here are 4 molecules together with their reported answers.
Molecule: Cn1cc(-c2cc(N3CCCS3(=O)=O)ccc2Oc2ccc(F)cc2F)c2c(F)c[nH]c2c1=O
Answer Label: Met
//
Molecule: CCNC(=O)c1cc2c(-c3cc(N4CCCCS4(=O)=O)ccc3Oc3ccc(F)cc3F)cn(C)c(=O)c2[nH]1
Answer Label: Not met
//
Molecule: CCNC(=O)c1cc2c(-c3cc(N4CCCS4(=O)=O)ccc3Oc3ccc(F)cc3F)cn(C)c(=O)c2[nH]1
Answer Label: Not met
//
Molecule: CCS(=O)(=O)Nc1ccc(Oc2ccc(F)cc2F)c(-c2cn(C)c(=O)c3[nH]ccc23)c1 [Compound 2, reference compound]
Answer Label: Not met

IN: For Cn1cc(-c2cc(N3CCCCS3(=O)=O)ccc2Oc2ccc(F)cc2F)c2c(F)c[nH]c2c1=O , is the recorded half-life below the cut-off of 1 h?
OUT: Met
